Test: E. coli acrAB mutant growth effects, primary screen, E. coli filamentation inducers, strain DRC39, OD650, 24 h (AID 1178);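 further: growth measured as culture turbidity by optical density at 650 nm; test concentration not given here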
Settings: higher = more signal, called active from +8 up or from −8 down
z-score values, listed per item
Observable: z-score

- Molecule: "O=C1O[C@H](c2ccccc2)[C@H](c2ccccc2)N2[C@H]1[C@@H](C(=O)Nc1nc3ccccc3s1)[C@]1(C(=O)Nc3ccccc31)[C@H]2c1ccc(O)cc1"
  Measured number: -0.797
- Molecule: "N#Cc1ccc(NN2C(C(O)c3cccs3)C=CC3C(=O)N(c4ccccc4)C(=O)C32)cc1 (configuration not stated)"
  Measured number: 0.766
- Molecule: "O=C(CS)NCCCCCCNC(=O)[C@H]1C[C@H]2C(=O)N3CCC[C@H]3C(=O)N2[C@H]1c1cccc(OCCO)c1"
  Measured number: -0.34
- Molecule: "NC(=O)NCC#Cc1ccc2c(c1)[C@]1(C(=O)N2)[C@H](C(=O)N2CCCCCCC2)[C@H]2C(=O)O[C@H](c3ccccc3)[C@H](c3ccccc3)N2[C@@H]1c1ccc(OCCO)cc1"
  Measured number: 0.049
- Molecule: "COc1ccc(CCNC(=O)[C@@]2(Sc3ccc(C)cc3)CC(=O)N(Cc3ccccc3Cl)[C@@H]2c2ccc(CO)cc2I)cc1"
  Measured number: 0.853
- Molecule: "Cc1ccc(S[C@]2(C(=O)NCc3ccccc3)CC(=O)N(Cc3ccccc3)[C@@H]2c2ccc(CO)cc2)cc1"
  Measured number: -0.037
- Molecule: "C=CCC(OC(C)=O)[C@@H]1[C@@H](N(Cc2ccc(-c3ccccc3)cc2)C(=O)Cc2ccc(OC)cc2)c2cc(OCCCO)ccc2N1C(=O)c1ccc2ccccc2n1 (some centres not stated)"
  Measured number: 1.29

====

Entries and their z-score
Assay: mitochondrial membrane potential change in A549 cells, profiling panel, cell-based, JC-1 fluorescence, basal, 24 h, 100 nL (AID 1138);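 further: A549 lung adenocarcinoma cells under basal conditions with no added stimulus; test concentration not given here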
Conditions: higher = more signal

- Compound: "CCCCC(O)C1C=CC2C(=O)N(C3CCCCC3)C(=O)C2N1Nc1ccc(OC)cc1 (configuration not stated)"
  z-score: 0.191
- Compound: "[N-]=[N+]=NCc1ccccc1[C@@H]1OC(c2ccc(OCCCO)cc2)=N[C@]1(Cc1ccccc1)C(=O)N1CCCCC1"
  z-score: 2.06
- Compound: "C=C[C@@H](COC(C)=O)N(Cc1ccccc1[N+](=O)[O-])S(=O)(=O)c1ccc(Br)cc1"
  z-score: 0.505
- Compound: "C=CC(COC(C)=O)NS(=O)(=O)c1ccc(Br)cc1 (configuration not stated)"
  z-score: 0.499
- Compound: "COCCOC(=O)N1C(=O)[C@@]2(c3cc(C#CCC(C(=O)OC)C(=O)OC)ccc31)[C@H](c1ccc(O)cc1)N1[C@H](c3ccccc3)[C@H](c3ccccc3)OC(=O)[C@H]1[C@@H]2C(N)=O"
  z-score: -0.82
- Compound: "O=C1O[C@H](c2ccccc2)[C@H](c2ccccc2)N2[C@H]1[C@@H](C(=O)O)[C@]1(C(=O)Nc3ccc(C#CC4(O)CCCCCC4)cc31)[C@H]2c1ccc(OCCO)cc1"
  z-score: -1.42
- Compound: "O=C1C[C@@](C(=O)NC2CC2)(c2ccc([N+](=O)[O-])cc2)[C@@H](c2ccc(CO)cc2)N1CC12CC3CC(CC(C3)C1)C2"
  z-score: 0.0799
